systemUnderTest: human PLK1 (Homo sapiens, UniProt P53350)
Construct: A full-length human PLK1 (XM—047240) (amino acids 1-603) clone; His6 (N); made in house; host or cells: Sf9 insect cells (baculovirus) for PLK1; E. coli BL21(DE3) RIL for CDC25C
Sequence (P53350 whole entry, the tested form may be a part): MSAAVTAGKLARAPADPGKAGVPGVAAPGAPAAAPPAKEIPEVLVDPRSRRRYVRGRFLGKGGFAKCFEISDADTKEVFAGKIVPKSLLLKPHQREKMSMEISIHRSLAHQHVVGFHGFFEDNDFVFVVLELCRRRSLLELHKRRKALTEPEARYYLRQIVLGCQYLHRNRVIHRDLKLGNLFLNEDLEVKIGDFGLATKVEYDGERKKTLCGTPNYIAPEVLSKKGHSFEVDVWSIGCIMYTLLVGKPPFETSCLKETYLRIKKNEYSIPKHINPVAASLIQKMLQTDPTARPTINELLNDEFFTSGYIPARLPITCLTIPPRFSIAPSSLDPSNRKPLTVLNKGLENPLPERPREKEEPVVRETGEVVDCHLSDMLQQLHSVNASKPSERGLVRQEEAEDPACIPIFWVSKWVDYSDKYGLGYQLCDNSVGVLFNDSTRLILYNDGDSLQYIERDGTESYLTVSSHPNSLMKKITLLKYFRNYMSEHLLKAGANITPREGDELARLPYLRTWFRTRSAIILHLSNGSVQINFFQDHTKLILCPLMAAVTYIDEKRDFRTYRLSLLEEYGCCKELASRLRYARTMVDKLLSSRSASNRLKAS
testDescription: PLK1 protein kinase assay (CDC25C phosphorylation, [γ-32P]-ATP)
Assay type: biochemical
conditionsUsed: 100 μM ATP; read-out: PLK1 kinase inhibition IC50
pIC50: −log10 of the molar value.
measuredProperty: pIC50

Answered cases to consult:
INSERT INTO measurements (mol, measuredresult) VALUES
  ('O=C(c1sc2c([N+](=O)[O-])cc(C(F)(F)F)cc2[n+]1[O-])N1CCCC1', 4.25),
  ('O=C(NO)c1sc2c([N+](=O)[O-])cc(F)cc2[n+]1[O-]', 4.17),
  ('O=[N+]([O-])c1cc(C(F)(F)F)cc2c1sc(O)[n+]2[O-]', 4.41);

a: N#Cc1sc2c([N+](=O)[O-])cc(C(F)(F)F)cc2[n+]1[O-]
b: N#Cc1cc([N+](=O)[O-])c2sc(C(N)=O)[n+]([O-])c2c1
Which record shows the lower pIC50: the first, a , or the second, b ? Returns: label corresponding to the selected item. a

The values you see were collected from patent US20060040997A1.
